Cited source: the supplement of paper PMC8728848

- experimental_target: Neu5Ac(a2-6)Gal(b1-4)GlcNAc(b1-2)Man(a1-3)[Man(a1-6)]Man(b1-4)GlcNAc(b1-4)GlcNAc
- assay_details: glycan array binding signal (z-score within array); higher = stronger binding
- assay_context: glycan notation: IUPAC condensed, linker removed
The sample as a whole holds a higher share of the strongest signals than the screen did.
result_type: glycan array binding signal (z-score)

* LlpA (Burkholderia cenocepacia) (protein) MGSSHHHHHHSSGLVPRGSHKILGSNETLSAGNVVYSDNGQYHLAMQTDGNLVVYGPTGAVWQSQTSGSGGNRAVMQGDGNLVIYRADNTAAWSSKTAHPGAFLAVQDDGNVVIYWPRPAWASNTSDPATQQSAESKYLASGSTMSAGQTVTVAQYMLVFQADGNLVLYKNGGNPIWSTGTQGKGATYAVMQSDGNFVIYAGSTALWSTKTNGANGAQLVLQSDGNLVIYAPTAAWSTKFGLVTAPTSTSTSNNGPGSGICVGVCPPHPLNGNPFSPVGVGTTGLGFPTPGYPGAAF | 0.308
* cupB6 (Pseudomonas aeruginosa), Q02SP7 (protein) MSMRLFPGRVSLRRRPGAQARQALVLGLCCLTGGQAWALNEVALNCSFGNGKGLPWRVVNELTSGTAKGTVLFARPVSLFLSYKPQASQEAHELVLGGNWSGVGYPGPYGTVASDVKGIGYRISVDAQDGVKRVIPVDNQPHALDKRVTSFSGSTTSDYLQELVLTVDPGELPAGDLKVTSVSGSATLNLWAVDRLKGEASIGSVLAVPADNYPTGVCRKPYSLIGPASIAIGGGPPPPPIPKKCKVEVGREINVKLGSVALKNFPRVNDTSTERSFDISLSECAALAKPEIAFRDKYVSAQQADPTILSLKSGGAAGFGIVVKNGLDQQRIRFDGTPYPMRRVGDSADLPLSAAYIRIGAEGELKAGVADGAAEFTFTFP | 0.325
* Vd2LysM (Verticillium dahliae) (protein) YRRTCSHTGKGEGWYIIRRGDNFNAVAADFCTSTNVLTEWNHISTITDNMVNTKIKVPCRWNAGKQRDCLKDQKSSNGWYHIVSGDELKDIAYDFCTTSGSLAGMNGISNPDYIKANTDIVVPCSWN | -0.322
